# Substrate: CIS F74, F116L-EloB/C + F3 (human), Q9NSE2
# ASSAY NAME: SPR
# CONDITION: remark: other sources report otherwise
MEASURED METRIC: IC50 (µM)
Form entry: value (µM) — number only.

Prompt: Would you mind telling me what IC50 value was observed for PVPDYTSIHIV (here or on the partner: phosphotyrosine at 595) [GHR pY595 peptide] ?
Completion: 3.7
